Biological target: 5-hydroxytryptamine receptor 6 (Homo sapiens)
Sequence (P50406 whole entry): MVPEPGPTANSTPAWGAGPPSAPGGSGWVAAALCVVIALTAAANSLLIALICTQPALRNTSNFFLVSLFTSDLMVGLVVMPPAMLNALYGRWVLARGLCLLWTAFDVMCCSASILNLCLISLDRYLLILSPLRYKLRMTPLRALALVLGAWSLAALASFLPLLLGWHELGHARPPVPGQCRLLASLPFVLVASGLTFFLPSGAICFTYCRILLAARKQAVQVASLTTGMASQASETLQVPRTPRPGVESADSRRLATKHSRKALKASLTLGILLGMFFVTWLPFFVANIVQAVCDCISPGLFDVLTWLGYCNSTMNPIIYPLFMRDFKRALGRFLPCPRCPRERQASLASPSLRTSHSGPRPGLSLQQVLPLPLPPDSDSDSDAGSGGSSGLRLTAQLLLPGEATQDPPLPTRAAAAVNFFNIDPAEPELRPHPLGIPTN
Assay: 5-HT6 Binding Assay
Conditions: pH 7.4; 37 °C
Readout Label: pEC50
# pEC50 = -log10(concentration in molar units)

Q) Item `CN(C)CCc1c[nH]c2ccc(NS(=O)(=O)c3ccc4c(Cl)cccc4c3)cc12` : provide pEC50
A) 9.54

Q) Item CN1CCC(c2cn(S(=O)(=O)c3ccccc3Br)c3ccccc23)C1 (stereo unspecified) : provide pEC50
A) 7.27

Q) Item `CN(C)Cc1cn(S(=O)(=O)c2ccccc2)c2ccccc12` : provide pEC50
A) 6.06

Q) Item `Cc1cn(S(=O)(=O)c2ccc(N)cc2)c2ccccc12` : provide pEC50
A) 6.49

Q) Item O=S(=O)(Nc1ccc2[nH]cc(C[C@H]3CCCN3)c2c1)c1ccccc1I [(R)-5a] : provide pEC50
A) 9.40

Q) Item CN1CCC[C@H]1Cc1c[nH]c2ccc(NS(=O)(=O)c3ccc(C(F)(F)F)cc3)cc12 [pyrrolidinylindole, (S)-5b] : provide pEC50
A) 7.67

====

Readout Label: IC50 (µM)
Note: unit µM is implicit; provide only the numeric part.

Q) Give IC50 for CC1=Cc2cc(NS(=O)(=O)c3c(Cl)nc4sccn34)ccc2C1 [indenylsulfonamide, 47+48] tested on 5-hydroxytryptamine receptor 6 (Homo sapiens).
A) 3
